- tgt: T1, human Claudin 18.2 (hCLDN18.2) (human, UniProt P56856-2 1-261)
- T1 construct: whole, on cells; also called CLDN18A2; claudin 18 splice variant 2
- test_description: FACS, PDX-hCLDN18.2 gastric cancer tumor tissue-derived cells
- From the text: FACS was used to detect the binding of anti-CLDN18.2 chimeric antibodies to HEK293 cells stably transfected expressing hCLDN18.2 (HEK293-hCLDN18.2) and gastric cancer tumor tissue-derived cells naturally expressing hCLDN18.2 (PDX-hCLDN18.2).

binder	EC50
ch-126A11 (antibody, V domains shown, also called chimeric antibody of clone 126A11) VH: QVQLKESGPGLVAPSQSLSITCTVSEFSLTTYGVSWVRQPPGKGLEWLGVIWGDGSTNYHSALISRLSISKDTSKSQVFLKLNSLQTDDTATYYCAKPGLRNAMDYWGQGTSVTVSS VL: DIVMTQSPSSLSVSAGEKVTMSCKSSQSLLNSGNQKNYLAWYQQKPGQPPKLLIYGASTRESGVPDRFTGSGSGTDFTLTISSVQAEDLAVYYCQNDLIYPLTFGAGTKLELK	15 nM
ch-241F7 (antibody, V domains shown, also called chimeric antibody of clone 241F7) VH: EVQLQQSGPELEKPGASVKISCKASGYSFTAYNMNWVRQRNGKSLEWIGNIDPYYGGTNYNQKFKGKATLTVDKSSSTAYMQLKSLTSEDSAVYFCATVYYGNSLIYWGQGTLVTVSA VL: DIVMTQSPSSLTVTAGEKVTMSCKSSQSLLNSGNQKNYLTWYQQKPGQPPKLLIYWASTRESGVPDRFTGTGSGTDFTLTISSVQAEDLAVYYCQNNYFYPLTFGAGTQLELK	4.87 nM
ch-40G7 (antibody, V domains shown, also called chimeric antibody of clone 40G7) VH: QVQLQQPGTELVKPGASVKLSCKASGYTFTNYWMHWVKQRPGHGLEWIGMIHPNSYSTNYNEKFRSKATLTVDKSSSTAYMQLSSLTSEDSAVYYCTRIYYGNAMDYWGQGTSVTVSS VL: DIVMTQSPSSLTVTAGERVTMSCKSSQSLFNSGNQKNYLTWYHQKPGQPPKLLIYWAFTRESGVPDRFTGSGSGTDFTLTIRSVQAEDLAVYYCQNDYSYPFTFGSGTKLEIK	7.69 nM
ch-287F12 (antibody, V domains shown, also called chimeric antibody of clone 287F12) VH: QIQLVQSGPELKRPGETVRISCKASGFTFTTAGMHWVQKMAGKGLKWLGWTNTHSGEPKYAEDFKGRFAFSLDTSGSDAYLQIGNLKYEDAATYFCAKWGRGNALDYWGQGTSVTVSS VL: DIVMTQSPSSLTVTAGEKVTMTCKSSQSLLNSGNQKNYLTWYQQKPGQPPKLLIYWASTRESGVPDRFTGSGSGTDFTLTINTVQAEDLAVYYCQNTYSYPLTFGGGTKLELR	16.8 nM
ch-43F5 (antibody, V domains shown, also called chimeric antibody of clone 43F5) VH: QVQLQQPGAELVKPGTSVKLSCKASGYTFTSYWTHWVKQRPGQGLEWIGMIHPNSGSSNYNEKFKSKATLTVDKSSSTAYMQLRRLTSEDSAVYYCTRIHYGNAMDYWGQGTSVTVSS VL: DIVMTQSPSSLTVTAGEKVTMTCKSSQSLLNSGNQKNYLTWYQQKPGQPPKLLIYWASTRESGVPDRFTGSGSGTDFTLTISSVQAEDLAIYYCQNDYSFPFTFGSGTKLEIK	5.35 nM
